- Tested on: 168753-222-R-J1-PDC complex spheroid viability;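 further: viability measured after seven days of drug exposure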
- measurement.description: Anticancer human tumor 168753-222-R-J1-PDC patient-derived bladder carcinoma cell line growth inhibition [CLK]
- experimental.setup: curve of first compound; second compound 0.316 µM
Overview of reported pIC50 across a group of compounds:
Lab note — pIC50 values are minus log10 of concentrations in M.

compound: COc1c(OCCCN2CCOCC2)ccc2c3n(c(=NC(=O)c4cnc(N)nc4)nc12)CCN3 + CNC(=O)c1ccc(Nc2nc(OC3CCCC3)c3c(-c4ccc5nc(C)oc5c4)c[nH]c3n2)c(OC)c1
target.or.test.system: 168753-222-R-J1-PDC complex spheroid viability;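 further: viability measured after seven days of drug exposure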
readout.number: 8.29

## Task I'm curious: which pIC50 was measured for CC1COCCN1c1cc(C2(S(C)(=N)=O)CC2)nc(-c2ccnc3[nH]ccc23)n1 (stereo not drawn) + CNC(=O)c1ccc(Nc2nc(OC3CCCC3)c3c(-c4ccc5nc(C)oc5c4)c[nH]c3n2)c(OC)c1 tested on 168753-222-R-J1-PDC complex spheroid viability?;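 further: viability measured after seven days of drug exposure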
## Result 5.53

Hey, just so you know, these numbers are from PubChem BioAssay AID2060626.
